pIC50: −log10 of the molar value.
Read-out record for UniProt P80457: pIC50
Sequence (P80457 whole entry): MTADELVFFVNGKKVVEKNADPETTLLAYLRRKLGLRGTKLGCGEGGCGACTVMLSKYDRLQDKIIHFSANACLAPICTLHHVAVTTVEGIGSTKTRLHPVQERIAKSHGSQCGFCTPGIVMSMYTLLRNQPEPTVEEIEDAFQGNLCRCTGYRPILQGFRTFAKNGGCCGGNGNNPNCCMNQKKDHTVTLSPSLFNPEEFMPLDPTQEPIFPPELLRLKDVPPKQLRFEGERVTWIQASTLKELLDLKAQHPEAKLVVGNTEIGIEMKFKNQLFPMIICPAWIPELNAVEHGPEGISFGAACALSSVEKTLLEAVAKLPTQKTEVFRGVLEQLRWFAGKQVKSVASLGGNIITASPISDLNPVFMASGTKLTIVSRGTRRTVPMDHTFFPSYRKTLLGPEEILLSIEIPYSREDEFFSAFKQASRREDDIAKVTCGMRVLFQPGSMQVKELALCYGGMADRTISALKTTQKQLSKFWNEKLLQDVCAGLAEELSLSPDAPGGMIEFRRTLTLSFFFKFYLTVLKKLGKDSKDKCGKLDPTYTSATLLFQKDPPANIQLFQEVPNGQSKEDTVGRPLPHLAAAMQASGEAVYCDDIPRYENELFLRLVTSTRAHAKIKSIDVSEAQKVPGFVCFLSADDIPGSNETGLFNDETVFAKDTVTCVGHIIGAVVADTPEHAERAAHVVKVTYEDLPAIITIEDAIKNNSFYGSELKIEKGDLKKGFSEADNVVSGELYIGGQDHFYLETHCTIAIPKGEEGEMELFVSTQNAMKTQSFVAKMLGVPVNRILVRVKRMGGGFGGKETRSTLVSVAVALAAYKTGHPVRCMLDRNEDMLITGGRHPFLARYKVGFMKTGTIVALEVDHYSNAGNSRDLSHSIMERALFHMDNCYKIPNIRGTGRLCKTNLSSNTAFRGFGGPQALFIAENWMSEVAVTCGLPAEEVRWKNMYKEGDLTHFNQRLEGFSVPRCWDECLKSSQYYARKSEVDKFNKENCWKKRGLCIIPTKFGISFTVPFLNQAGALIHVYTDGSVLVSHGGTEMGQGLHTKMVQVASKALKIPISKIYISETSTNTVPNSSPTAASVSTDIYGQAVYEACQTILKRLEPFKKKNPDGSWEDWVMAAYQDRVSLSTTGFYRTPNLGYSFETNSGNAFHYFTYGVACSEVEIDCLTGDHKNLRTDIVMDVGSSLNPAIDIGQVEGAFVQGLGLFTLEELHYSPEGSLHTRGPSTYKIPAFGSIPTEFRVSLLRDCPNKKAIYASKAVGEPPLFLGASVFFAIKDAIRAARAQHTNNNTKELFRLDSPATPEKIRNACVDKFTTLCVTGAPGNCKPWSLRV
Observable: pIC50

Cc1nc(-c2cc([N+](=O)[O-])c3c(ccn3C)c2)sc1C(=O)O	8.10

a: N#Cc1cc(-c2cc(C(=O)O)ccn2)cc2cc[nH]c12
b: Cn1ccc2cc(-c3cc(C(=O)O)ccn3)cc([N+](=O)[O-])c21
Hi team, can someone confirm which has the larger pIC50: a or b ? Thanks. Your answer should be the label attached to the chosen record.
a
(a: 7.92, b: 7.32)
